Target: Telomeric repeat-binding factor 2-interacting protein 1 (Homo sapiens, UniProt Q9NYB0)
Sequence (Q9NYB0 whole entry): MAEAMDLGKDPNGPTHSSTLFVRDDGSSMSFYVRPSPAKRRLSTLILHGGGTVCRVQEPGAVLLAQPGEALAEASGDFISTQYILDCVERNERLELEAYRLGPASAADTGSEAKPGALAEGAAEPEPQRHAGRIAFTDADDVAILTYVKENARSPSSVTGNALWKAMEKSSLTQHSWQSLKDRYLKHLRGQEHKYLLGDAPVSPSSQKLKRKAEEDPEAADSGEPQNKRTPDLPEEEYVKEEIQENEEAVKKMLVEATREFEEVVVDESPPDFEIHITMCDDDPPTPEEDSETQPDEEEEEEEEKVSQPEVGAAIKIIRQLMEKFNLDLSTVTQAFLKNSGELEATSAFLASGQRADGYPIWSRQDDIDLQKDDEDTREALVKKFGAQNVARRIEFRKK
Experiment: Competitive binding to RAP1 (unknown origin) incubated for 1 hr by fluorescence polarization-based binding assay
pIC50: −log10 of the molar value.

# substance, pIC50
records = [
    ("Ac-TTIGMKTLKAAFKT-NH2", "< 3.70"),
]
